molecular target: T1, Hmm-hTFRC (REGN2431), monomeric human transferrin receptor ectodomain with N-terminal hexahistidine-myc-myc … (human, UniProt P02786 89-760); assay: blocking ELISA, supernatant; Hmm-hTFRC binding to immobilized human holo-Tf
T1 construct: also called hmm.hTfR(C89-F763); His-myc-myc-hTFRC ecto
T1 sequence (P02786 other isoform, or with tags, fused parts or gaps): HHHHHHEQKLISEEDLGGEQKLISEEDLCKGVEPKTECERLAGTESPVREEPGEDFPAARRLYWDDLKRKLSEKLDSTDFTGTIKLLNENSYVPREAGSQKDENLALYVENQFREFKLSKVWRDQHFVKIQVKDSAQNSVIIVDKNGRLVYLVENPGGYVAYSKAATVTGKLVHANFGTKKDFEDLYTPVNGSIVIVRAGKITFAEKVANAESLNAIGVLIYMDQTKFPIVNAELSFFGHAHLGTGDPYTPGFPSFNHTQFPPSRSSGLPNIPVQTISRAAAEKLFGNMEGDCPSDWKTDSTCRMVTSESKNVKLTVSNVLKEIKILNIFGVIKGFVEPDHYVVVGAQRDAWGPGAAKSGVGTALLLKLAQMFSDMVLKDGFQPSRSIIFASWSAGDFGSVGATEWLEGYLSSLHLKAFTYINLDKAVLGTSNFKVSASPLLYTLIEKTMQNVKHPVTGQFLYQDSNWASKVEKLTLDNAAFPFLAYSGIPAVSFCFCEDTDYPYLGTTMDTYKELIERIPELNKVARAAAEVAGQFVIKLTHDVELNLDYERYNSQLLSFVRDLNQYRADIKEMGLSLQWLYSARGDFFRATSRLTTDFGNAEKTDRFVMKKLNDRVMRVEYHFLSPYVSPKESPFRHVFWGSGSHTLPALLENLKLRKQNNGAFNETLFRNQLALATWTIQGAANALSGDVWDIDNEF
propertyName: % Blocking (%)

# binder, propertyName, endpointUnit, numericResult
data = [
    ("69263 scFv (VH-VK) (scFv) EVQLVESGGGLVQPGRSLRLSCAVSGFTFDDYAMHWVRQAPGKGLEWVSGISWNSGTRGYADSVKGRFTISRDNAKNSLYLQMNSLRGEDTALYYCVKDITISPNYYGMDVWGQGTTVTVSSDIQMTQSPSSLSASVGDRVTITCRASQDISHYSAWYQQKPGKLPNLLIYAASTLQSGVPSRFSGSGSGTDFSLTTSSLQPEDVATYYCQKYNSVPLTFGGGTKVEIK", "% Blocking", "%", 14),
    ("69348 scFv (VH-VK) (scFv) QVQLVESGGGVVQPGRSLRLSCAASGFTFTTYGMHWVRQAPGKGLEWVAVIWYDGSNKYYGDSVKGRFTISRDNSKNTLYLQMNSLRVDDTAVYYCTRTHGYTRSSDGFDYWGQGTLVTVSSDIQMTQSPSSLSASVGDRVTITCRASQSIRNVLGWFQQKPGKAPQRLIYAASSLQSGVPSRFSGSGSGTEFTLTISSLQPEDFATYYCLQHNFYPLTFGGGTKVEIK", "% Blocking", "%", 0),
]
